Origin of values: PubChem BioAssay (NCI)

Answer each item with its documented growth.
Test system: MDA-MB-435 melanoma
Test method notes: NCI-60 one-dose screen, 48 h (100 = growth as untreated, 0 = no growth, -100 = all killed)
Stated conditions: 10 µM unless noted
This is part of a sample that, as a whole, favours compounds with a hit. Of some 83,000 tested, about 20% had one in any assay.
Numbers only, in %.

Cc1cc(C(=O)Nc2sc3c(c2C(N)=O)CCC(=O)C3)ccc1OCCN1CCCCC1	103

Fill in growth for each of the 5 compounds listed.
1. COC(=O)C(Cc1ccccc1)NS(=O)(=O)/N=C1\NC(=O)NC1=C(Cl)Cl (stereo not given)
2. Cc1ccc2c(n1)C(=O)C(Cl)=C(Nc1cccc(C(C)C)c1)C2=O
3. [Cl][Ru].c1ccc(-c2cc(-c3ccccn3)nc(-c3ccccn3)c2)cc1.c1ccc(-c2ccnc3c2ccc2c(-c4ccccc4)ccnc23)cc1
4. O=C(CSc1nccc(=O)[nH]1)Nc1ccc(-c2nc3ccccc3[nH]2)cc1
5. Cc1cccc2sc(/N=C(\N)C(Cl)(Cl)Cl)nc12

1: 105; 2: -70.6; 3: -62.2; 4: 111; 5: 103

Could you report growth for every entry in the following list?
1. [Cl][Ru].c1ccc(-c2cccc(-c3ccccn3)n2)nc1.c1ccc(-c2ccnc3c2ccc2c(-c4ccccc4)ccnc23)cc1
2. CN(C)c1ccc(/C=c2\sc3nc4ccccc4n3c2=O)cc1
3. COc1ccc(CNS(=O)(=O)/N=C2\NC(=O)NC2=C(Cl)Cl)cc1
4. O=C1C2=C(C(=O)c3c(O)cccc31)C(c1ccco1)c1sc(=O)[nH]c1S2 (stereo not given)
5. CN(C)CCCNc1c2ccc(Cl)cc2nc2c1oc1ccc(Cl)cc12
6. CN1C(=O)N(c2ccccc2)C2N=C(N/N=C/c3ccccc3)SC21 (stereo not given)
7. C#C[C@]1(O)CC[C@H]2[C@@H]3CC=C4c5sc(Nc6ccc(Cl)cn6)nc5CC[C@]4(C)[C@H]3CC[C@@]21C
8. O=C(NNc1nc2cc(F)ccc2n2c(CN3CC4(COC4)C3)ccc12)c1cnccn1

1. 10.5
2. 101
3. -3.14
4. -45.3
5. -74.3
6. -24.9
7. 41.4
8. 35.2

* * *

System: KM12 colon
Test method notes: NCI-60 one-dose screen, 48 h
Stated conditions: 10 µM unless noted
Compounds without any hit were thinned out: in the full panel of roughly 83,000, 20% have a hit. The source made the active and inactive calls. The calls were made as follows: active = growth percent below 10; inactive = the rest.
// one of active, inactive, no free text

# example entries with known answers
O=C(c1ccc(Cl)cc1)C1[C@H](c2ccc(Cl)cc2)[C@@H](c2ccccc2)NC12C(=O)Nc1ccc(Br)cc12 (some centres undefined)	inactive
CC(C)(O)c1cncc(-c2ccc3ncnc(N4CCc5cc(F)c(Cl)cc54)c3c2)c1	inactive
O=C(CCN1C(=O)/C(=C/c2ccccc2)SC1=S)N1CCOCC1	inactive
CCOC(=O)c1c(Nc2ccccc2)nn2c(N)c(C#N)c(-c3ccc(Cl)cc3)nc12	inactive
CCN1C(=S)N(CC)C2C1NN=C1SC(c3ccccc3)=CC(=O)N12 (centres undefined)	inactive

GET /call?item= COC(=O)c1ccc(NC(=S)N2CCc3ccc([N+](=O)[O-])cc3C2)cc1O returns the recorded outcome of this test.
inactive

Record: N/C(=N\c1nc2c(Cl)cc(Cl)cc2s1)C(Cl)(Cl)Cl
active

Okay, and CS(=O)(=O)c1ccc(-c2nc3ccccn3c2/C=N/Nc2nc(-c3ccc(Br)cc3)cs2)cc1 ?
inactive

Follow-up entry: COc1ccc(-c2nn3c(-c4ccccc4F)nnc3s2)cc1
inactive

How about CCN1CCN(/C(=N\c2sc(-c3ccccc3)nc2-c2ccccc2)c2ccccc2)CC1 ?
inactive

Please do the same for COc1cc(/C=C/C(=O)c2ccc(C)cc2)ccc1Oc1nc(NCCO)nc(N2CCOCC2)n1 as well.
inactive

Further, for CN1CCN(Cc2ccc(NC(=O)c3cncc(C#Cc4cnc5[nH]ncc5c4)c3)cc2C(F)(F)F)CC1 ?
active

Likewise for COc1ccc(/C=N/NC(=O)c2[nH]c3ccc(Br)cc3c2-c2ccccc2)s1 ?
active

Entry to check: COc1ccc(-n2c(SCC(=O)Nc3ccc(-c4nc5ccccc5[nH]4)cc3)nc3ccccc3c2=O)cc1
inactive

Again, but for COc1ccc(C(=O)c2cc(C(=O)/C=C/c3c(Cl)cccc3Cl)c3cc(C)ccn23)cc1
inactive

Would you kindly repeat that for Nc1cc(-c2c[nH]c3ccccc23)nc2cc(-c3c[nH]c4ccccc34)nn12 ?
inactive

Next up: COc1ccc(C(=O)/C=C/c2ccc(OCc3ccc(Cl)cc3)c(OC)c2)cc1OC
inactive

Now give it for O=c1[nH]c2ccc(Cl)cc2cc1CSc1ccccc1Nc1nccc(-c2ccc(Cl)cc2)n1 too.
inactive

Field entry: COC(=O)C1CCCN(S(=O)(=O)/N=C2\NC(=O)NC2=C(Cl)Cl)C1 (centres undefined)
active

* * *

System: HOP-92 NSCLC
Test method notes: NCI-60 one-dose screen, 48 h (100 = growth as untreated, 0 = no growth, -100 = all killed)
Stated conditions: 10 µM unless noted
The panel holds about 83,000 compounds, 20% with a hit somewhere; the sample as a whole holds those more often.
Recorded growth split into classes bottom bin: < 50%; middle bin: ≥ 50% and < 90%; top bin: ≥ 90%

Which class holds O=C(CCCN1C(=O)/C(=C/c2ccccc2F)SC1=S)N1CCOCC1 ?
middle bin

Then what about the compound CN(C)CCCNc1c2ccc(Cl)cc2nc2c1oc1ccccc12 ?
bottom bin

Repeat for the following compound: O=C(c1ccc(O)cc1)C1[C@H](c2ccc(Cl)cc2)[C@@H](c2ccccc2)NC12C(=O)Nc1ccc(Cl)cc12 (some centres undefined)
bottom bin

Try this compound too: CCOC(=O)c1c(Nc2ccccc2)nn2c(N)c(C#N)c(-c3ccc(OC)cc3)nc12
bottom bin

And what about the compound N#Cc1nc(-c2ccccc2)oc1N1CC[C@@H](CO)C1 ?
top bin

* * *

System: SK-MEL-28 melanoma
Test method notes: NCI-60 one-dose screen, 48 h
Stated conditions: 10 µM unless noted
This is part of a sample that, as a whole, favours compounds with a hit. Of some 83,000 tested, about 20% had one in any assay. The source made the active and inactive calls. The calls were made as follows: active = growth percent below 10; inactive = the rest.
Return exactly one item of active, inactive

N#Cc1c(-c2ccc(Cl)cc2)nc2c(-c3ccccc3)c(Nc3ccccc3)nn2c1N	inactive

# lookup: test call for O=C(CSc1nc2sc3c(c2c(=O)n1-c1ccc(Cl)cc1)CCCC3)NNC(=O)Nc1ccc(Cl)c(C(F)(F)F)c1
inactive

Then what about the compound COc1cc(/C=C/C(=O)c2cc(OC)c(OC)c(OC)c2)ccc1OCc1ccc(F)cc1 ?
inactive

Then C/C(=C(/c1ccc(Cl)cc1)c1ccc(OCCN)cc1)c1ccc(C)cc1 ?
inactive

Now this one: Fc1ccc(-c2cc3nc(C(Cl)Cl)nc(-c4ccccc4)n3n2)cc1
active

What would you report for Cc1cc2nc3c4cc(Cl)ccc4n(CC(=S)NCCN(C)C)c3nc2cc1C ?
active

* * *

System: UACC-257 melanoma
Test method notes: NCI-60 one-dose screen, 48 h (100 = growth as untreated, 0 = no growth, -100 = all killed)
Stated conditions: 10 µM unless noted
The panel holds about 83,000 compounds, 20% with a hit somewhere; the sample as a whole holds those more often.
Measure name: growth (%)
Answers are plain numbers, in %.

In the examples that follow, each entry is paired with its recorded growth.
Clc1ccc(-c2cn3cc(Cc4ccc(Cl)c(Cl)c4)sc3n2)cc1	52.3
C#C[C@]1(O)CC[C@H]2[C@@H]3CC=C4c5sc(Nc6ccc(Cl)cn6)nc5CC[C@]4(C)[C@H]3CC[C@@]21C	-45.2
CCOC(=O)c1c(Nc2ccccc2)nn2c(-c3ccco3)c(C#N)cnc12	112

Hi team, please reply with growth for each item in this list.
1. O=C(c1ccc(Cl)cc1)C1[C@H](c2ccc(Cl)cc2)[C@@H](c2ccccc2)NC12C(=O)Nc1ccc(Br)cc12 (some centres undefined)
2. COc1cc(OC)c(C2SCC(=O)N2Nc2ncnc3ccccc23)cc1OC (centres undefined)

1. 57.7
2. 108

Batch request: growth for each of the following compounds.
1. Cn1ccnc1C(=O)/C=C/c1ccc(NC(=O)Nc2ccc(F)cc2)cc1
2. N#Cc1ccc(C(=O)CSc2nc(Nc3ccc(S(N)(=O)=O)cc3)c3ccccc3n2)cc1

1. 85.6
2. 101

State recorded growth for all listed compounds.
1. COc1cc(/C=C/C(=O)c2cc(OC)c(OC)c(OC)c2)ccc1OCc1ccc(F)cc1
2. Cn1ccnc1C(=O)/C=C/c1ccc(NC(=O)Nc2ccccc2)cc1

79.8
80

* * *

Please go through the items and note down their growth.
Tested on: HOP-62 NSCLC
Test method notes: NCI-60 one-dose screen, 48 h (100 = growth as untreated, 0 = no growth, -100 = all killed)
Stated conditions: 10 µM unless noted
The panel holds about 83,000 compounds, 20% with a hit somewhere; the sample as a whole holds those more often.
One number for each entry, in %.

Illustrative cases are given below, each with its answer.
Nc1c(C(=O)Nc2ccc(Cl)cc2)sc2nc(-c3cnccn3)cc(-c3cccs3)c12	44.4
CCN1C(=S)N(c2ccccc2)C2NC(=O)N(/N=C/C=C/c3ccccc3OC)C21 (stereo not given)	80.6
OC1CCN(CCCOc2c3ccc(Cl)cc3nc3c2oc2ccc(Cl)cc23)CC1	41
COc1cc(/C=C/C(=O)c2cc(OC)c(OC)c(OC)c2)ccc1OCc1ccc(F)cc1	36.2
Cn1cc(-c2cc(N)n3nc(-c4cn(C)c5ccc(F)cc45)cc3n2)c2cc(F)ccc21	92
O=C(N/N=C/c1ccc(Cl)s1)c1[nH]c2ccc(Br)cc2c1-c1ccccc1	30.2
CC(=NNc1ncnc2ccccc12)c1ccc(S(C)(=O)=O)cc1	95
O=C(Nc1nc2ccc(O)cc2s1)c1cccc(C(F)(F)F)c1	88.6

Go through the list and state growth for each entry.
1. CCOC(=O)c1csc(NC(=O)CSc2nc3sc4c(c3c(=O)n2-c2ccc(Cl)cc2)CCCC4)n1
2. Cc1cc(C(NC(=O)CCCCCNc2cccc3c2C(=O)N(C2CCC(=O)NC2=O)C3=O)c2cccnc2)c(O)c2ncccc12 (stereo not given)
3. CC(C)(C)OC(=O)N1C(=O)c2c(c3c4ccccc4[nH]c3c3ccc4ccccc4c23)C1=O
4. Cn1ccnc1C(=O)/C=C/c1ccc(NC(=O)Nc2ccc(Cl)cc2)cc1

1. 101
2. 10.2
3. 52.2
4. 94.8
